# assay.text: Two weak acid combinations with lidocaine citrate: pH, precipitation and stability at 4° C. for 3 months
# test.conditions: lidocaine citrate solution (25 wt. % ethanol, 15 wt. % glycerin, 2.5 wt. % propylene glycol) with 2 wt. % acidifying agent
test.readout: pH
Enter a number only.

Previously resolved entries follow.
[[record]]
compound = "O=C(O)CC(O)C(=O)O (stereo not shown)"
reading = 3.93

[[record]]
compound = "CC(O)C(=O)O (stereo not shown)"
reading = 4.05

[[record]]
compound = "CC(=O)O"
reading = 4.00

[[record]]
compound = "O=C(O)/C=C\\C(=O)O"
reading = 3.32

[[record]]
compound = "O=C(O)[C@H](O)[C@@H](O)C(=O)O"
reading = 3.71


For record `O=C(O)/C=C/C(=O)O` the listed pH is 3.72

For record `O=C(O)CCC(=O)O` the listed pH is 4.23
